test-protocol: In vivo pharmacokinetic studies in rats, 1 hr intravenous infusion
experimental-parameters: male, Sprague-Dawley, rat, in vivo, iv, 100 mg/kg
readout-name: AUC(0-t) (ng·h/mL)

compound: Cn1c(=O)ccc2ccc(F)c(CCNC[C@H]3CN(c4cnc5c(n4)NC(=O)CO5)C(=O)O3)c21 [Example 15]
readout-name: AUC(0-t)
units-label: ng·h/mL
measured: 73700

----------
For Escherichia coli ATCC 25922, measured MIC is reported for the entries below.

compound: O=C(O)c1cn(C2CC2)c2cc(N3CCNCC3)c(F)cc2c1=O [Ciprofloxacin, reference compound]
units-label: µg/mL
MIC: 0.012

compound: Cn1c(=O)ccc2ccc(F)c(CCNC[C@@H]3CN(c4cnc5c(n4)NC(=O)CO5)C(=O)O3)c21
units-label: µg/mL
MIC: 0.06

compound: Cn1c(=O)ccc2ccc(F)c(CCCNC[C@H]3CN(c4cnc5c(n4)NC(=O)CO5)C(=O)O3)c21
units-label: µg/mL
MIC: 0.03

compound: Cn1c(=O)ccc2ccc(F)c(CCNC[C@H]3CN(c4cnc5c(n4)NC(=O)CO5)C(=O)O3)c21
units-label: µg/mL
MIC: 0.03

----------
system-name: E. coli topoisomerase IV (Escherichia coli, UniProt P0AFI2+P20083)
Sequence (P20083 whole entry): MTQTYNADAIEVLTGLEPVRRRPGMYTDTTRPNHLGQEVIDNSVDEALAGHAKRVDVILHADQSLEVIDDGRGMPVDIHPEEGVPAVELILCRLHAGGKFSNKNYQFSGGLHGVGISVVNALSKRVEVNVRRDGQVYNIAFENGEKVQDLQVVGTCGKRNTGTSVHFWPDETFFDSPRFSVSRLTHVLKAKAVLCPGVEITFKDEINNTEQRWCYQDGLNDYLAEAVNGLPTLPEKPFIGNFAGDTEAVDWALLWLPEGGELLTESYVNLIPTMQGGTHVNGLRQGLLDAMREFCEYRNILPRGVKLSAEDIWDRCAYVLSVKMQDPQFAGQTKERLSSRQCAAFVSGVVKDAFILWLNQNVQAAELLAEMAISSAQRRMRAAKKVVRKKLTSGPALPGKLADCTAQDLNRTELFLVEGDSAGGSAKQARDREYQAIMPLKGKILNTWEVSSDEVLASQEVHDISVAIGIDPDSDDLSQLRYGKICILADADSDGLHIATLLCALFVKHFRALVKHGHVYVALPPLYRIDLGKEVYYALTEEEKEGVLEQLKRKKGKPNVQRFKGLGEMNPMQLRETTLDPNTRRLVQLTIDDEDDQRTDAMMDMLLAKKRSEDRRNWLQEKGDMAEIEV
Sequence (P0AFI2 whole entry): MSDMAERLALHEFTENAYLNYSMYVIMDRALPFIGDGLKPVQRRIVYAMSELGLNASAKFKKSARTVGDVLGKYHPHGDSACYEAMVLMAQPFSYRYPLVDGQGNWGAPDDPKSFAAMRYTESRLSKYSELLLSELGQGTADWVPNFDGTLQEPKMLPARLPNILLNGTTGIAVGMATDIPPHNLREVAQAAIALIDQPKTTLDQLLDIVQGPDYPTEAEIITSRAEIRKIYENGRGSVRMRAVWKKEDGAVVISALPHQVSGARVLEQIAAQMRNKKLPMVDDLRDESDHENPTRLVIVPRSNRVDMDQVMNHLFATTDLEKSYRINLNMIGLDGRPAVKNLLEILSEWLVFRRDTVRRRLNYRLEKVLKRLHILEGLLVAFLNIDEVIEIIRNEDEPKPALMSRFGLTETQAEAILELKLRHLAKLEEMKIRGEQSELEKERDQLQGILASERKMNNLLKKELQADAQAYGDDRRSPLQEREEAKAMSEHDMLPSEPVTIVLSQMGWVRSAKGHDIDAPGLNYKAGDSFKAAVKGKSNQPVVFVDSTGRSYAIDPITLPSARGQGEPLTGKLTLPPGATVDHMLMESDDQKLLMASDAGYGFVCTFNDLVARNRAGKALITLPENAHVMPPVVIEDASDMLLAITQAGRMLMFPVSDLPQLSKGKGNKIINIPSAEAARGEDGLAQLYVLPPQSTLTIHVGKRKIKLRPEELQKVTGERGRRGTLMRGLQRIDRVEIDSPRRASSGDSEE
test-protocol: biochemical
experimental-parameters: decatenation assay; read-out: E. coli Topo IV IC50
pIC50: −log10 of the molar value.

compound: Cn1c(=O)ccc2ccc(F)c(CCCNC[C@H]3CN(c4cnc5c(n4)NC(=O)CO5)C(=O)O3)c21 [Example 22]
pIC50: 7.72
--
compound: O=C1COc2ccc(N3C[C@H](CNCCc4c(F)ccc5ccc(=O)n(CCO)c45)OC3=O)nc2N1 [Example 10]
pIC50: 7.52
--
compound: Cn1c(=O)ccc2ccc(F)c(CCNCC[C@H]3CN(c4cnc5c(n4)NC(=O)CO5)C(=O)O3)c21 (single isomer, unassigned) [Example 24]
pIC50: 6.91
--
compound: Cc1nc2ccc(F)c(CCNC[C@H]3CN(c4ccc5c(n4)NC(=O)CO5)C(=O)O3)c2n(C)c1=O [Example 6]
pIC50: 7.52

----------
test-protocol: In vivo pharmacokinetic studies in rats, 1 hr intravenous infusion
experimental-parameters: male, Sprague-Dawley, rat, in vivo, iv, 100 mg/kg

compound: Cn1c(=O)ccc2ccc(F)c(CCNC[C@H]3CN(c4cnc5c(n4)NC(=O)CO5)C(=O)O3)c21 [Example 15]
clearance / mL/min/kg: 23.3

----------
test-protocol: In vivo pharmacokinetic studies in rats, 1 hr intravenous infusion
experimental-parameters: male, Sprague-Dawley, rat, in vivo, iv, 30 mg/kg

compound: Cn1c(=O)ccc2ccc(F)c(CCNC[C@H]3CN(c4cnc5c(n4)NC(=O)CO5)C(=O)O3)c21 [Example 15]
Tmax: 1 h

----------
test-protocol: In vivo pharmacokinetic studies in rats, 1 hr intravenous infusion
experimental-parameters: male, Sprague-Dawley, rat, plasma, iv, 5 mg/kg
readout-name: Cmax (ng/mL)

line-notation: Cn1c(=O)ccc2ccc(F)c(CCNC[C@H]3CN(c4cnc5c(n4)NC(=O)CO5)C(=O)O3)c21
units-label: ng/mL
measured: 2400

----------
test-protocol: In vivo pharmacokinetic studies in rats, 1 hr intravenous infusion
experimental-parameters: male, Sprague-Dawley, rat, in vivo, iv, 150 mg/kg
readout-name: Cmax (µg/mL)

line-notation: Cn1c(=O)ccc2ccc(F)c(CCNC[C@H]3CN(c4cnc5c(n4)NC(=O)CO5)C(=O)O3)c21
units-label: µg/mL
measured: 101
